Source of measurements: the supplement of paper PMC11424490

# Test system: NCI-H2122
# METHOD_DESCRIPTION: combination cScore with sotorasib (Bliss gap around IC50) (%PoC); higher = stronger additive effect
PROPERTY: combination cScore with sotorasib
Give the figure only, with no unit attached.

Some molecules with recorded combination cScore with sotorasib:
CN(Cc1cnc2nc(N)nc(N)c2n1)c1ccc(C(=O)N[C@@H](CCC(=O)O)C(=O)O)cc1 [Methotrexate] + C=CC(=O)N1CCN(c2nc(=O)n(-c3c(C)ccnc3C(C)C)c3nc(-c4c(O)cccc4F)c(F)cc23)[C@@H](C)C1    -3.03
O=C(/C=C\n1cnc(-c2cc(C(F)(F)F)cc(C(F)(F)F)c2)n1)NNc1cnccn1 [KPT-330] + C=CC(=O)N1CCN(c2nc(=O)n(-c3c(C)ccnc3C(C)C)c3nc(-c4c(O)cccc4F)c(F)cc23)[C@@H](C)C1    3.63
CC(C)C[C@@H](C(=O)N[C@H](C(=O)OC1CCCC1)c1ccccc1)[C@H](O)C(=O)NO [Tosedostat] + C=CC(=O)N1CCN(c2nc(=O)n(-c3c(C)ccnc3C(C)C)c3nc(-c4c(O)cccc4F)c(F)cc23)[C@@H](C)C1    10.4
CN(C)C(=N)NC(=N)N [Metformin] + C=CC(=O)N1CCN(c2nc(=O)n(-c3c(C)ccnc3C(C)C)c3nc(-c4c(O)cccc4F)c(F)cc23)[C@@H](C)C1    5.93
CC(O)(CS(=O)(=O)c1ccc(F)cc1)C(=O)Nc1ccc(C#N)c(C(F)(F)F)c1 (centres undefined) [Bicalutamide] + C=CC(=O)N1CCN(c2nc(=O)n(-c3c(C)ccnc3C(C)C)c3nc(-c4c(O)cccc4F)c(F)cc23)[C@@H](C)C1    3.68

Tell me the measured combination cScore with sotorasib of Nc1ncn([C@H]2C[C@H](O)[C@@H](CO)O2)c(=O)n1 [Decitabine] + C=CC(=O)N1CCN(c2nc(=O)n(-c3c(C)ccnc3C(C)C)c3nc(-c4c(O)cccc4F)c(F)cc23)[C@@H](C)C1 , please.
1

Suppose we examine the molecule CCN(CC)CCNC(=O)c1c(C)[nH]c(/C=C2\C(=O)Nc3ccc(F)cc32)c1C [Sunitinib] + C=CC(=O)N1CCN(c2nc(=O)n(-c3c(C)ccnc3C(C)C)c3nc(-c4c(O)cccc4F)c(F)cc23)[C@@H](C)C1 ; what combination cScore with sotorasib value has been reported?
10.9

Query: combination cScore with sotorasib; subject: Nc1ncn([C@@H]2O[C@H](CO)[C@@H](O)[C@H]2O)c(=O)n1 [Azacitidine] + C=CC(=O)N1CCN(c2nc(=O)n(-c3c(C)ccnc3C(C)C)c3nc(-c4c(O)cccc4F)c(F)cc23)[C@@H](C)C1
3.93

Can you share its combination cScore with sotorasib? I mean this molecule: COc1cc(OC2CCN(C)CC2)ccc1Nc1ncc2c(n1)n(C1CCCC1)c(=O)n2C [AZ3146] + C=CC(=O)N1CCN(c2nc(=O)n(-c3c(C)ccnc3C(C)C)c3nc(-c4c(O)cccc4F)c(F)cc23)[C@@H](C)C1
4.43

###

# Tested on: SW837
# METHOD_DESCRIPTION: combination cScore with adagrasib (Bliss gap around IC50) (%PoC); higher = stronger additive effect
Is combination cScore with adagrasib at least 2? Then MET. If not, NOT MET.

COc1cc2nc(C)nc(N[C@H](C)c3cc(N)cc(C(F)(F)F)c3)c2cc1O[C@H]1CCOC1 [BI-3406 (SOSi)] + C=C(F)C(=O)N1CCN(c2nc(OC[C@@H]3CCCN3C)nc3c2CCN(c2cccc4cccc(Cl)c24)C3)C[C@@H]1CC#N    MET
COc1ccc(Cn2ccc3ccc(C(=O)NO)cc32)cc1 + C=C(F)C(=O)N1CCN(c2nc(OC[C@@H]3CCCN3C)nc3c2CCN(c2cccc4cccc(Cl)c24)C3)C[C@@H]1CC#N    NOT MET
Cc1nc(NC(=O)N2CCC[C@H]2C(N)=O)sc1-c1ccnc(C(C)(C)C(F)(F)F)c1 [BYL-719] + C=C(F)C(=O)N1CCN(c2nc(OC[C@@H]3CCCN3C)nc3c2CCN(c2cccc4cccc(Cl)c24)C3)C[C@@H]1CC#N    MET

Please turn your attention to the following entry.
Is it the case that Oc1nc(-c2ccc(C(F)(F)F)cc2)nc2c1CSCC2 [XAV939] + C=C(F)C(=O)N1CCN(c2nc(OC[C@@H]3CCCN3C)nc3c2CCN(c2cccc4cccc(Cl)c24)C3)C[C@@H]1CC#N has combination cScore with adagrasib reaching or exceeding 2?
MET

###

Measured combination cScore with sotorasib values are reported for all entries that follow.
# Test system: NCI-H2122
# METHOD_DESCRIPTION: combination cScore with sotorasib (Bliss gap around IC50) (%PoC); higher = stronger additive effect

See these solved cases before continuing.
N[C@@H](Cc1ccc(N(CCCl)CCCl)cc1)C(=O)O [Melphalan] + C=CC(=O)N1CCN(c2nc(=O)n(-c3c(C)ccnc3C(C)C)c3nc(-c4c(O)cccc4F)c(F)cc23)[C@@H](C)C1 [sotorasib]    2.92
O=C(/C=C/N1C[C@H]2C[C@@H]1CN2c1ccccn1)c1ccccc1O [PFI-3] + C=CC(=O)N1CCN(c2nc(=O)n(-c3c(C)ccnc3C(C)C)c3nc(-c4c(O)cccc4F)c(F)cc23)[C@@H](C)C1 [sotorasib]    15.8
C#Cc1cccc(Nc2ncnc3cc(OCCOC)c(OCCOC)cc23)c1 [Erlotinib] + C=CC(=O)N1CCN(c2nc(=O)n(-c3c(C)ccnc3C(C)C)c3nc(-c4c(O)cccc4F)c(F)cc23)[C@@H](C)C1 [sotorasib]    27.4
CCCCCOC(=O)Nc1nc(=O)n([C@@H]2O[C@H](C)[C@@H](O)[C@H]2O)cc1F [Capecitabin] + C=CC(=O)N1CCN(c2nc(=O)n(-c3c(C)ccnc3C(C)C)c3nc(-c4c(O)cccc4F)c(F)cc23)[C@@H](C)C1 [sotorasib]    4.4

Give the measured combination cScore with sotorasib of N[C@H]1CC[C@H](N[C@@H]2C[C@H]2c2ccccc2)CC1 [ORY-1001] + C=CC(=O)N1CCN(c2nc(=O)n(-c3c(C)ccnc3C(C)C)c3nc(-c4c(O)cccc4F)c(F)cc23)[C@@H](C)C1 [sotorasib] .
8.65

###

# Test system: NCI-H2122
# METHOD_DESCRIPTION: combination cScore with adagrasib (Bliss gap around IC50) (%PoC); higher = stronger additive effect
PROPERTY: combination cScore with adagrasib
Number only, no unit.

GET /values?readout=combination cScore with adagrasib&item= Cc1c(-c2c(-c3ccc(F)o3)sc3ncnc(O[C@H](Cc4ccccc4OCc4ccnn4CC(F)(F)F)C(=O)O)c23)ccc(OCCN2CCN(C)CC2)c1Cl + C=C(F)C(=O)N1CCN(c2nc(OC[C@@H]3CCCN3C)nc3c2CCN(c2cccc4cccc(Cl)c24)C3)C[C@@H]1CC#N
8.13

Look up combination cScore with adagrasib: Cc1c(CN2CCC(Nc3ncnc4sc(CC(F)(F)F)cc34)CC2)ccc2[nH]c(C#N)cc12 [MI-463] + C=C(F)C(=O)N1CCN(c2nc(OC[C@@H]3CCCN3C)nc3c2CCN(c2cccc4cccc(Cl)c24)C3)C[C@@H]1CC#N
19.7

State the recorded combination cScore with adagrasib for this entry: O=C(c1cc(Cc2n[nH]c(=O)c3ccccc23)ccc1F)N1CCN(C(=O)C2CC2)CC1 [Olaparib] + C=C(F)C(=O)N1CCN(c2nc(OC[C@@H]3CCCN3C)nc3c2CCN(c2cccc4cccc(Cl)c24)C3)C[C@@H]1CC#N
5.71

Endpoint output: combination cScore with adagrasib of CC(C)Nc1cc(-c2c[nH]c(C(=O)N[C@H](CO)c3cccc(Cl)c3)c2)c(Cl)cn1 [Ulixertinib] + C=C(F)C(=O)N1CCN(c2nc(OC[C@@H]3CCCN3C)nc3c2CCN(c2cccc4cccc(Cl)c24)C3)C[C@@H]1CC#N . Value?
-12.2

###

# Test system: NCI-H2122
# METHOD_DESCRIPTION: relative IC50 of cell viability (CellTiter-Glo); higher = less potent
Measured relative IC50 of cell viability of individual entries
Could you give me the number in nM? Just the number is fine.

Cc1nc(NC(=O)N2CCC[C@H]2C(N)=O)sc1-c1ccnc(C(C)(C)C(F)(F)F)c1 [BYL-719] (top concentration tested 10000 nM)    2530
Cc1cn(-c2cc(NC(=O)c3ccc(C)c(Nc4nccc(-c5cccnc5)n4)c3)cc(C(F)(F)F)c2)cn1 [Nilotinib] (top concentration tested 10000 nM)    2510
CC(=O)O[C@@]12CO[C@@H]1C[C@H](O)[C@@]1(C)C(=O)[C@H](O)C3=C(C)[C@@H](OC(=O)[C@H](O)[C@@H](NC(=O)OC(C)(C)C)c4ccccc4)C[C@@](O)([C@@H](OC(=O)c4ccccc4)[C@H]21)C3(C)C [Docetaxel] (top concentration tested 100.01 nM)    1.68
CCN(CC)CCNC(=O)c1c(C)[nH]c(/C=C2\C(=O)Nc3ccc(F)cc32)c1C [Sunitinib] (top concentration tested 9999.9 nM)    4650

Turning now to a further compound:
What measured relative IC50 of cell viability goes with COc1ccccc1-c1cc(Nc2cccc(CS(N)(=O)=O)c2)ncn1 [LDC-067] (top concentration tested 10000 nM) ?
6690
